biological target: Inositol 1,4,5-trisphosphate-gated calcium channel ITPR1 (Rattus norvegicus); experiment: Agonist activity at rat IP3R1 expressed in chicken DT40 cells assessed as induction of Ca2+ release
Define the label as true when EC50 is strictly less than 30 µM and as false in all remaining cases.

compound | classification
Nc1ncnc2c1ncn2[C@@H]1O[C@H](CO)[C@@H](O[C@H]2O[C@H](CO)[C@@H](OP(=O)(O)O)[C@H](O)[C@H]2O)[C@H]1OP(=O)(O)O | false
O=P(O)(O)O[C@H]1[C@H](OP(=O)(O)O)[C@@H](O)C(O)O[C@@H]1CO (stereo not given in full) | true
O=P(O)(O)O[C@@H]1[C@@H](O)[C@H](O)[C@H](O)[C@H](O)[C@H]1OP(=O)(O)O | true
Nc1ncnc2c1ncn2[C@@H]1O[C@H](CO)[C@@H](O[C@H]2O[C@H](CO)[C@@H](OP(=O)(O)O)[C@H](OP(=O)(O)O)[C@H]2O)[C@H]1O | true
Nc1ncnc2c1ncn2[C@@H]1O[C@H](CO)[C@@H](O[C@H]2O[C@H](CO)[C@@H](OP(=O)(O)O)[C@H](OP(=O)(O)O)[C@H]2O)[C@H]1OP(=O)(O)O | true
